Let's look at some compounds and their measured refractive index.
Experiment: refractive index (Na D-line) (dimensionless); xn = mol fraction of the nth substance listed
Conditions: 318.15 K; 101.32 kPa; Liquid; Standard Abbe refractometry; x1 = 0.0305

{"Compound": "COCCOCCOCCOC [2,5,8,11-tetraoxadodecane] + CCO", "refractive index": 1.3567}
{"Compound": "COCCOCCOCCOCCOC [2,5,8,11,14-pentaoxapentadecane] + CCO", "refractive index": 1.3593}
{"Compound": "COCCOC [1,2-dimethoxyethane] + CCO", "refractive index": 1.3518}
{"Compound": "COCCOCCOC [2,5,8-trioxanonane] + CCO", "refractive index": 1.3543}
